Molecular target: Human full-length CaMKIIδ (Homo sapiens, UniProt Q13557)
Construct: Human full-length CaMKIIδ (Cat #02-111) was obtained from Carna Biosciences; GST; purchased Carna Biosciences 02-111
Assay: Human CaMKII enzyme inhibition assay (radiometric kinase assay)
Format: biochemical
Settings: 3 μM compound; 500 nM ATP; 0.5 nM CaMKIIδ; read-out: CaMKIIδ inhibitory activity (%) at 3 μM
Description: In Vitro CaMKIIδ Inhibitory Activity was Evaluated by an Enzyme Assay. Human CaMKII Enzyme Inhibition Assay Kinase assay for CaMKIIs was performed using the radiometric assay. […] After incubating the enzyme, peptide, and compounds for 5 min, kinase reactions were initiated by adding ATP, followed by incubation for 60 min at room temperature in a total volume of 50 μL. […] The radioactivity was counted by a TopCount scintillation counter (PerkinElmer). […]
Where a name gives a salt, the structure may show the parent alone.
measured-property: inhibition at 3 µM (%)
Give a bare numeral; the unit % is implied.

-- ask Report measured inhibition at 3 µM; entry is COc1cc(CNC2CC2)ccc1Nc1ncc(-c2ccc(C#N)c(O[C@@H](C)Cn3cnnn3)c2)cn1 [Example 52, hydrochloride]
-- reply 100

Note: attention shifts to another entry.
-- ask Report measured inhibition at 3 µM; entry is COc1cc(N2CCC(N3CCOCC3)CC2)ccc1Nc1ncc(-c2ccc(Cl)c(O[C@@H](C)Cn3ccnc3)c2)cn1
-- reply 99
